- TARGET_OR_TEST_SYSTEM: recombinant human CK2 (Homo sapiens)
- Construct: purchased Millipore
- Sequence (P68400 whole entry): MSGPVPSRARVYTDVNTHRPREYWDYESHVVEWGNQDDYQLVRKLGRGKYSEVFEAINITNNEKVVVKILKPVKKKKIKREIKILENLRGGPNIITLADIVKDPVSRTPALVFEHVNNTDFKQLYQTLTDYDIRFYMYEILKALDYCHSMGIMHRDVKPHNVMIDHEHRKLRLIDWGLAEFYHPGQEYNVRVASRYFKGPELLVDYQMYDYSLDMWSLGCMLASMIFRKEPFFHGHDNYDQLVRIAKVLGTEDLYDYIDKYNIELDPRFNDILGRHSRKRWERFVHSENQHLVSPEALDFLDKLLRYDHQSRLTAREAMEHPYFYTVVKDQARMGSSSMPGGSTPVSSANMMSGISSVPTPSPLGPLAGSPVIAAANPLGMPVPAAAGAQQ
- Sequence (P67870 whole entry partner): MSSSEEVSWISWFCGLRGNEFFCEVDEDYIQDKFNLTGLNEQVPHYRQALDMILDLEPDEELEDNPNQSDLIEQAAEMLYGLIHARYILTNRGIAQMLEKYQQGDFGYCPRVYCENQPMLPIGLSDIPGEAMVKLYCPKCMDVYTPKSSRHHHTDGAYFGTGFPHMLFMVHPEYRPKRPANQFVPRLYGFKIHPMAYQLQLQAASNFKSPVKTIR
- ASSAY_EXPLANATION: CK2 Kinase Assay (33P-ATP, filter plate)
- Assay type: biochemical
- MEASUREMENT_SETUP: final ATP concentration 15 μM, 10 min at 30° C.; read-out: protein kinase CK2 IC50
QUANTITY: IC50 (nM)
Dear colleague, please return just the value in nM, with no unit written.

## Input Return the recorded IC50 value; entry: `O=C(O)c1cc2nc(Nc3cccc(Cl)c3)c3ccncc3c2[nH]1`
## Output 21
